Molecular target: T1, Syncrip NURR domain (N) (Homo sapiens, UniProt O60506 16-109)
T1 sequence: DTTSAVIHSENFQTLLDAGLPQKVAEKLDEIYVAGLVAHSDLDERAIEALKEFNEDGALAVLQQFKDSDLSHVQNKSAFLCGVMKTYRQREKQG
Assay: BLI; BLI: 5 mM Tris-HCl pH 7.4, 50 mM NaCl, 1 mM TCEP, 0.5 mg/mL BSA, 30 C; NMR: 5 mM Tris-HCl pH 7.4, 50 mM NaCl, 0.5 mM TCEP
Settings: protein: recombinant; tags: His6-SUMO or His, removed by HRV 3C; label: 5'-biotin
measurement type: Kd (µM)
One number for each entry, in µM.

**Query** Report Kd for GUAGACCAGGCUGG (ssRNA) [14mer miR-3470]
**Result** 29
